# target-of-assay: PARP7 (Homo sapiens (Human))
# assay: Enzymatic assay for inhibition of PARP7: TR-FRET displacement of biotinylated Probe A from the TIPARP active site
# experimental-parameters: Table A-1
Reported IC50 values for a set of molecules

molecule: CN(CCC(=O)N1CCN(c2ccc(C#N)cn2)CC1)C[C@@H]1c2ccccc2CN1c1cn[nH]c(=O)c1C(F)(F)F
target-of-assay: PARP7 (Homo sapiens (Human))
recorded-result: < 100 nM
//
molecule: O=c1[nH]ncc(N2Cc3cc(OCCO)cc(F)c3C2)c1C(F)(F)F
target-of-assay: PARP7 (Homo sapiens (Human))
recorded-result: < 100 nM
//
molecule: O=c1[nH]ncc(N2Cc3cccc(OCCN4CCOCC4)c3C2)c1C(F)(F)F
target-of-assay: PARP7 (Homo sapiens (Human))
recorded-result: < 100 nM
//
molecule: O=c1[nH]ncc(N2Cc3cccc(CNCc4ccncc4)c3C2)c1C(F)(F)F
target-of-assay: PARP7 (Homo sapiens (Human))
recorded-result: < 100 nM
//
molecule: COC[C@@H](COCCC(=O)N1CCN(c2ccc(Cl)cn2)CC1)Nc1cn[nH]c(=O)c1C(F)(F)F
target-of-assay: PARP7 (Homo sapiens (Human))
recorded-result: < 100 nM
//
molecule: C[C@@H](COCCC(=O)N1CCN(c2ccc(C(F)(F)F)nc2)CC1)Nc1cn[nH]c(=O)c1C(F)(F)F
target-of-assay: PARP7 (Homo sapiens (Human))
recorded-result: < 100 nM
//
molecule: CC[C@@H](COCCC(=O)N1CCN(c2ncc(Cl)cn2)CC1)Oc1cn[nH]c(=O)c1Br
target-of-assay: PARP7 (Homo sapiens (Human))
recorded-result: < 100 nM
//
molecule: N#Cc1ccc(N2CCN(C(=O)C[C@@H]3CC[C@@H](COc4cn[nH]c(=O)c4Cl)O3)CC2)nc1 (single isomer, unassigned) [Example 582 Isomer A]
target-of-assay: PARP7 (Homo sapiens (Human))
recorded-result: ≥ 1000 nM

Reported IC50, molecule N#Cc1ccc(N2CCN(C(=O)CCOC[C@H](CO)Oc3cn[nH]c(=O)c3C(F)(F)F)CC2)nc1 (single isomer, unassigned) [Example 573 Isomer C] : ____
< 100 nM

Reported IC50, molecule COC[C@@H](COCCC(=O)N1CCN(c2ncc(C(F)(F)F)cn2)CC1)Oc1cn[nH]c(=O)c1Br : ____
< 100 nM

Reported IC50, molecule N#Cc1ccc(N2CCN(C(=O)c3ccc(OC[C@H]4c5ccccc5CN4c4cn[nH]c(=O)c4C(F)(F)F)cc3)CC2)nc1 (single isomer, unassigned) [Example 35 Isomer B] : ____
100 to 1000 nM

Reported IC50, molecule N#Cc1ccc(N2CCN(C(=O)/C=C/COC[C@@H]3c4ccccc4CN3c3cn[nH]c(=O)c3C(F)(F)F)CC2)nc1 [Example 79 Isomer C] : ____
< 100 nM

Reported IC50, molecule COC[C@@H](COCCC(=O)N1CCN(c2ncc(C(F)(F)F)cn2)CC1)Nc1cn[nH]c(=O)c1Br : ____
< 100 nM

Reported IC50, molecule N#Cc1ccc(N2CCC3(CCN(C(=O)CCOC[C@@H]4CCCN4c4cn[nH]c(=O)c4C(F)(F)F)CC3)C2)nc1 : ____
≥ 1000 nM

Reported IC50, molecule CCc1c(N2Cc3cccc(OCCO)c3C2)cn[nH]c1=O : ____
≥ 1000 nM

Reported IC50, molecule N#Cc1ccc(N2CCN(C(=O)C[C@@H]3CC[C@H]([C@@H]4CCCN4c4cn[nH]c(=O)c4C(F)(F)F)O3)CC2)nc1 [Example 141C] : ____
100 to 1000 nM

Reported IC50, molecule C[C@@H](COCCC(=O)N1CCN(c2ccc(C#N)cn2)CC1)Nc1cn[nH]c(=O)c1Br : ____
< 100 nM

Reported IC50, molecule N#Cc1ccc(N2CCN(C(=O)COCCCOc3cn[nH]c(=O)c3C(F)(F)F)CC2)nc1 : ____
< 100 nM

* * *

Reported IC50 values for a set of compounds
# target-of-assay: UniProt:Q7Z3E1
# assay: Enzymatic assay for inhibition of PARP7: TR-FRET displacement of biotinylated Probe A from the TIPARP active site
# experimental-parameters: Table A-1

compound: O=c1[nH]ncc(N2Cc3ccc(O[C@@H]4CCCNC4)cc3C2)c1C(F)(F)F
recorded-result: < 100 nM
--
compound: CN(CCC(=O)N1CCN(c2ccc(C#N)cn2)CC1)C[C@H]1c2ccccc2CN1c1cn[nH]c(=O)c1Cl
recorded-result: 100 to 1000 nM
--
compound: C[C@@H](COCCC(=O)N1CCN(c2ccc(C#N)cn2)CC1)Oc1cn[nH]c(=O)c1C(F)(F)F [Example 530A]
recorded-result: < 100 nM

Reported IC50, compound O=c1[nH]ncc(N2Cc3cccc(OCCN4CCNCC4)c3C2)c1Cl : ____
100 to 1000 nM

Reported IC50, compound O=C(C[C@@H]1CC[C@@H]([C@@H]2CCCN2c2cn[nH]c(=O)c2C(F)(F)F)O1)N1CCN(c2ncc(Cl)cn2)CC1 [Example 147A] : ____
< 100 nM

Reported IC50, compound CN(C)c1cccc2c1CN(c1cn[nH]c(=O)c1C(F)(F)F)C2 : ____
< 100 nM

Reported IC50, compound C[C@H](O)[C@@H](COCCC(=O)N1CCN(c2ncc(C(F)(F)F)cn2)CC1)Nc1cn[nH]c(=O)c1C(F)(F)F [Example 635] : ____
< 100 nM

* * *

# target-of-assay: PARP7 (Homo sapiens (Human), UniProt Q7Z3E1)
# Sequence (Q7Z3E1 whole entry): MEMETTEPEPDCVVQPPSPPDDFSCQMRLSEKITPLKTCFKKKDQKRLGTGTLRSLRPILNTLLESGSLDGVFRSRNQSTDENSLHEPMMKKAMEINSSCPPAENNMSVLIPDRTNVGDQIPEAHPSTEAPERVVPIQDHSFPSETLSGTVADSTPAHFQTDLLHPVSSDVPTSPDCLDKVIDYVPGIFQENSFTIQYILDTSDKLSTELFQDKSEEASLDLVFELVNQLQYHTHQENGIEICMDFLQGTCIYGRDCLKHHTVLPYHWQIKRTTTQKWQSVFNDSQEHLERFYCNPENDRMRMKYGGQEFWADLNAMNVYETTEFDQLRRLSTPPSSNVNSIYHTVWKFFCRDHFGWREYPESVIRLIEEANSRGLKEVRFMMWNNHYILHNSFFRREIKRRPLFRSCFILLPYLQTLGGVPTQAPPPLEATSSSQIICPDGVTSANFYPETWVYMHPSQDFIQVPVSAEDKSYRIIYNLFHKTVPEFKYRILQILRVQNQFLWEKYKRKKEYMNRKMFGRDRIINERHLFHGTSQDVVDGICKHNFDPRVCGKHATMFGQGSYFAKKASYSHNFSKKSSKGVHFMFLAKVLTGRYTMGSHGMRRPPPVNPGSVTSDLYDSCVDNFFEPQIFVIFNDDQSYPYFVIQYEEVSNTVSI
# assay: Enzymatic assay for inhibition of PARP7: TR-FRET displacement of biotinylated Probe A from the TIPARP active site
# experimental-parameters: Table A-1
pIC50: −log10 of the molar value.
Reported pIC50 values for a set of compounds

Some entries whose results are on file:
compound: N#Cc1cnc(N2CCN(C(=O)c3cc(OC[C@@H]4c5ccccc5CN4c4cn[nH]c(=O)c4C(F)(F)F)ccn3)CC2)nc1 (single isomer, unassigned) [Example 64 Isomer B]
target-of-assay: PARP7 (Homo sapiens (Human), UniProt Q7Z3E1)
pIC50: > 7.00
--
compound: Cc1ccc(N2CCN(C(=O)c3cccc(OCC4c5ccccc5CN4c4cn[nH]c(=O)c4C(F)(F)F)c3)CC2)nc1 (stereo not shown)
target-of-assay: PARP7 (Homo sapiens (Human), UniProt Q7Z3E1)
pIC50: > 7.00
--
compound: N#Cc1cnc(N2CCN(C(=O)c3cccc(OCC4CCCN4c4cn[nH]c(=O)c4C(F)(F)F)c3)CC2)nc1 (stereo not shown)
target-of-assay: PARP7 (Homo sapiens (Human), UniProt Q7Z3E1)
pIC50: > 7.00

Reported pIC50, compound C[C@@H](COCCCC(=O)N1CCN(c2ncc(C(F)(F)F)cn2)CC1)Nc1cn[nH]c(=O)c1C(F)(F)F : ____
> 7.00

Reported pIC50, compound C[C@@H](CN(C)CCC(=O)N1CCN(c2ccc(C#N)cn2)CC1)Oc1cn[nH]c(=O)c1C(F)(F)F : ____
> 7.00

Reported pIC50, compound N#Cc1ccc(N2CCN(C(=O)c3ccc(OCCOCC4CCN(c5cn[nH]c(=O)c5C(F)(F)F)C4)cc3)CC2)nc1 (stereo not shown) : ____
> 7.00

Reported pIC50, compound N#Cc1ccc(N2CCN(C(=O)c3cccc(OC[C@H]4CCCN4c4cn[nH]c(=O)c4C(F)(F)F)c3)CC2)nc1 : ____
≤ 6.00

Reported pIC50, compound O=c1[nH]ncc(N2Cc3ccc(OCc4cccnc4)nc3C2)c1C(F)(F)F : ____
> 7.00

Reported pIC50, compound C[C@H](O)[C@@H](COCCC(=O)N1CCN(c2ncc(C(F)(F)F)cn2)CC1)Nc1cn[nH]c(=O)c1C(F)(F)F [Example 611] : ____
> 7.00

Reported pIC50, compound C[C@@H](COCCC(=O)N1CCN(c2ccc(C#N)cn2)CC1)Nc1cn[nH]c(=O)c1Cl : ____
> 7.00

Reported pIC50, compound N#Cc1ccc(N2CCN(C(=O)c3ccc(OC[C@@H]4c5ccccc5CN4c4cn[nH]c(=O)c4C(F)(F)F)cc3)CC2)nc1 (single isomer, unassigned) [Example 35 Isomer A] : ____
≤ 6.00

* * *

# target-of-assay: PARP7 (Homo sapiens (Human))
# assay: Enzymatic assay for inhibition of PARP7: TR-FRET displacement of biotinylated Probe A from the TIPARP active site
# experimental-parameters: Table A-1
pIC50: −log10 of the molar value.
Reported pIC50 values for a set of molecules

molecule: C[C@@H](COCCS(=O)(=O)N1CCN(c2ncc(C(C)(C)C)cn2)CC1)Nc1cn[nH]c(=O)c1C(F)(F)F
assay-readout: pIC50
recorded-result: > 7.00

molecule: O=c1[nH]ncc(N2Cc3cccc(OCC4CCCCO4)c3C2)c1C(F)(F)F (stereo not shown)
assay-readout: pIC50
recorded-result: > 7.00

molecule: N#Cc1ccc(N2CCN(C(=O)CCOC3Cc4ccccc4C3Oc3cn[nH]c(=O)c3C(F)(F)F)CC2)nc1 (stereo not shown)
assay-readout: pIC50
recorded-result: 6.00 to 7.00

We next turn to a different molecule, shown below.
# returns recorded pIC50 (system: PARP7 (Homo sapiens (Human))) for O=C(CCOC[C@@H](CC1CCNCC1)Nc1cn[nH]c(=O)c1C(F)(F)F)N1CCN(c2ncc(C(F)(F)F)cn2)CC1
> 7.00
